Catalogue of compounds with associated pEC50
- assayed_system: A. baumannii PBP2 (Acinetobacter baumannii, UniProt D0C8Z9)
- Construct: made in house
- Sequence (D0C8Z9 whole entry): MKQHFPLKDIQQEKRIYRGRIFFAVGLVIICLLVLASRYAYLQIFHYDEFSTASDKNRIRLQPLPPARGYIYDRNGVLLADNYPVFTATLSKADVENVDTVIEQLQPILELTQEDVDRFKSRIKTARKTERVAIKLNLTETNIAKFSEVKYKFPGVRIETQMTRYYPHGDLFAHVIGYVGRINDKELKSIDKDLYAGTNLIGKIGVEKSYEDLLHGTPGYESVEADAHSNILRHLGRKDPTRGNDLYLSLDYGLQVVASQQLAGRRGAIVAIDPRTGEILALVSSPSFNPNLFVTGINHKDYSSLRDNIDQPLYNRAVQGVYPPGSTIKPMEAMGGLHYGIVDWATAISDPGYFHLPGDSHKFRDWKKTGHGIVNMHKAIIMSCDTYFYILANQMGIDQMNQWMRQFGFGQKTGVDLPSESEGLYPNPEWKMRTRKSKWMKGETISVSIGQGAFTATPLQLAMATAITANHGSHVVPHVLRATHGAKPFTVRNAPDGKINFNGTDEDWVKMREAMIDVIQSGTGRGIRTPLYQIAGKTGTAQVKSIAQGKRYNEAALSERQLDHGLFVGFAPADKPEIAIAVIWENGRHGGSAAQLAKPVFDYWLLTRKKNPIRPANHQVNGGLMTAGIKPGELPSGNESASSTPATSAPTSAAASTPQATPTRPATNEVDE
- experiment: Bocillin-FL fluorescence polarization competition binding assay, A. baumannii PBP2
- condition_summary: fluorescence polarization competition binding assay using Bocillin-FL; read-out: A. baumannii PBP2 Potency
pEC50: −log10 of the molar value.

compound | pEC50
NCCCN1CCN(C(=O)N[C@@H](C(=O)N[C@H]2Cc3cc(Cl)c(F)c(C(=O)O)c3OB2O)c2c(F)cc(O)c(O)c2Cl)C(=O)C1=O | < 4.00
CS(=O)(=O)N1CCN(C(=O)N[C@@H](C(=O)N[C@H]2Cc3ccc(F)c(C(=O)O)c3OB2O)c2cc(F)c(O)c(O)c2Cl)C1=O (single isomer, unassigned) | < 4.00
NCCN1CCN(C(=O)N[C@@H](C(=O)N[C@H]2Cc3ccc(F)c(C(=O)O)c3OB2O)c2c(F)cc(O)c(O)c2Cl)C(=O)C1=O (single isomer, unassigned) | < 4.00

* * *

- assayed_system: E. coli K12 PBP4 (Escherichia coli, UniProt P24228)
- Construct: made in house
- Sequence (P24228 21-477): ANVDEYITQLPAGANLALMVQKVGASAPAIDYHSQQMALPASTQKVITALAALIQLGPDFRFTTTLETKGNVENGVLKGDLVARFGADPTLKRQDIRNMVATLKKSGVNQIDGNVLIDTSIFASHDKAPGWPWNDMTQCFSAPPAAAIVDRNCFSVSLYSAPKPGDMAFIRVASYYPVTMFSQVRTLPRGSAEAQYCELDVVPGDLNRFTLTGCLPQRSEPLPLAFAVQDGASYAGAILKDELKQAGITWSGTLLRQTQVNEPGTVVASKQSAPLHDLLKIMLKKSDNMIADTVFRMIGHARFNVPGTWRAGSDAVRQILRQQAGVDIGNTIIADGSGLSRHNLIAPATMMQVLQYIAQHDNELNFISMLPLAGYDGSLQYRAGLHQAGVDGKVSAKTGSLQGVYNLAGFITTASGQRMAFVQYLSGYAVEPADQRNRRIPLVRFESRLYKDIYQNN
- experiment: Bocillin-FL fluorescence polarization competition binding assay, E. coli PBP4
- condition_summary: fluorescence polarization competition binding assay using Bocillin-FL; read-out: E. coli K12 PBP4 Potency (EC50)
Catalogue of compounds with associated EC50

compound | assayed_system | EC50
CCN1CCN(C(=O)NC(C(=O)N[C@H]2Cc3ccc(SCc4ccc(O)cc4)c(C(=O)O)c3OB2O)c2csc(N)n2)C(=O)C1=O (some centres unmarked) | E. coli K12 PBP4 (Escherichia coli, UniProt P24228) | 30 to 500 µM
CCN1CCN(C(=O)NC(C(=O)N[C@H]2Cc3ccc(S)c(C(=O)O)c3OB2O)c2csc(N)n2)C(=O)C1=O (some centres unmarked) | E. coli K12 PBP4 (Escherichia coli, UniProt P24228) | 30 to 500 µM

* * *

- assayed_system: E. coli K12 PBP3 (Escherichia coli, UniProt P0AD68)
- Sequence (P0AD68 1-577): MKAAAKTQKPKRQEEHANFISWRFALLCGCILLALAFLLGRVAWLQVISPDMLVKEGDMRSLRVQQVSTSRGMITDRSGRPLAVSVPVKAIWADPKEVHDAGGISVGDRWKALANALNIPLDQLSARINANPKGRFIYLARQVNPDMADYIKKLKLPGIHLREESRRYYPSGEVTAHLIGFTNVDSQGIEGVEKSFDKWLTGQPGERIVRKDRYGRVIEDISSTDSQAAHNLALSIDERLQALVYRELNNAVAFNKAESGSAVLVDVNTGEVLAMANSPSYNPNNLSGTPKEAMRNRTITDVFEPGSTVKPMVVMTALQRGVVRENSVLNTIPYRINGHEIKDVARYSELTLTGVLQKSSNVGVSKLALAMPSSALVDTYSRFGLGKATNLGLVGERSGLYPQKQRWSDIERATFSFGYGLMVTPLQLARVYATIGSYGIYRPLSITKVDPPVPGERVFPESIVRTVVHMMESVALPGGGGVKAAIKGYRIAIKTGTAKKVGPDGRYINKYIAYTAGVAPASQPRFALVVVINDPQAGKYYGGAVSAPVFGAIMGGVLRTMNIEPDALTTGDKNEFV
- experiment: biochemical
pEC50: −log10 of the molar value.
Catalogue of molecules with associated pEC50

molecule | pEC50
CCN1CCN(C(=O)NC(C(=O)N[C@H]2Cc3cccc(C(=O)O)c3OB2O)c2cc(F)c(O)c(Cl)c2)C(=O)C1=O (stereo partly shown) | > 4.52
CCN1CCN(C(=O)NC(C(=O)N[C@H]2Cc3cccc(C(=O)O)c3OB2O)c2c(F)cc(C(=O)O)cc2F)C(=O)C1=O (stereo partly shown) | > 4.52
NCCCN1CCN(C(=O)NC(C(=O)N[C@H]2Cc3ccc(F)c(C(=O)O)c3OB2O)c2c(F)cc(O)cc2F)C(=O)C1=O (stereo partly shown) | > 4.52
CCN1CCN(C(=O)NC(C(=O)N[C@H]2Cc3ccc(C(F)(F)F)c(C(=O)O)c3OB2O)c2csc(N)n2)C(=O)C1=O (stereo partly shown) | < 3.30
NCCN1CCN(C(=O)N[C@@H](C(=O)N[C@H]2Cc3cccc(C(=O)O)c3OB2O)c2cccc(NS(N)(=O)=O)c2)C(=O)C1=O (single isomer, unassigned) | 3.30 to 4.52
CCN1CCN(C(=O)N[C@H](C(=O)N[C@H]2Cc3cccc(C(=O)O)c3OB2O)c2ccc(C(=O)O)cc2O)C(=O)C1=O (single isomer, unassigned) | > 4.52
CCN1CCN(C(=O)NC(C(=O)N[C@H]2Cc3cccc(C(=O)O)c3OB2O)c2ccc(O)c(F)c2F)C(=O)C1=O (stereo partly shown) | > 4.52
CCN1CCN(C(=O)NC(C(=O)N[C@H]2Cc3cccc(C(=O)O)c3OB2O)c2ccc(O)c(N(S(C)(=O)=O)S(C)(=O)=O)c2)C(=O)C1=O (stereo partly shown) | > 4.52
CCN1CCN(C(=O)NC(C(=O)N[C@H]2Cc3cccc(C(=O)O)c3OB2O)c2cc(NS(N)(=O)=O)ccc2F)C(=O)C1=O (stereo partly shown) | > 4.52
CCN1CCN(C(=O)NC(C(=O)N[C@H]2Cc3cccc(C(=O)O)c3OB2O)c2cccc([N+](=O)[O-])c2)C(=O)C1=O (stereo partly shown) | 3.30 to 4.52
O=C(O)c1cccc2c1OB(O)[C@@H](NC(=O)[C@H](NC(=O)N1CCN(CC(F)(F)F)C(=O)C1=O)c1c(F)cc(O)cc1F)C2 (single isomer, unassigned) | > 4.52
O=C(O)c1cccc2c1OB(O)[C@@H](NC(=O)C(NC(=O)N1CCN(C3CNC3)C(=O)C1=O)c1c(F)cc(O)cc1F)C2 (stereo partly shown) | > 4.52
CCN1CCN(C(=O)NC(C(=O)N[C@H]2Cc3cccc(C(=O)O)c3OB2O)c2cc(Cl)c(O)c(Cl)c2)C(=O)C1=O (stereo partly shown) | > 4.52
CCN1CCN(C(=O)NC(C(=O)N[C@H]2Cc3ccc(F)c(C(=O)O)c3OB2O)c2cc(F)c(O)c(O)c2Cl)C(=O)C1=O (stereo partly shown) | > 4.52
NCCN1CCN(C(=O)NC(C(=O)N[C@H]2Cc3cccc(C(=O)O)c3OB2O)c2c(F)c(F)c(O)c(F)c2F)C(=O)C1=O (stereo partly shown) | > 4.52
NCCN1CCN(C(=O)N[C@H](C(=O)N[C@H]2Cc3cccc(C(=O)O)c3OB2O)c2cc(Cl)c(O)c(Cl)c2)C(=O)C1=O (single isomer, unassigned) | 3.30 to 4.52
CCN1CCN(C(=O)NC(C(=O)N[C@H]2Cc3cccc(C(=O)O)c3OB2O)c2cc(O)ccc2O)C(=O)C1=O (stereo partly shown) | 3.30 to 4.52
CCN1CCN(C(=O)NC(C(=O)N[C@H]2Cc3ccc(F)c(C(=O)O)c3OB2O)c2c(F)cc(O)c(O)c2F)C(=O)C1=O (stereo partly shown) | > 4.52
CCN1CCN(C(=O)NC(C(=O)N[C@H]2Cc3ccc(SCc4ccc(O)cc4)c(C(=O)O)c3OB2O)c2csc(N)n2)C(=O)C1=O (stereo partly shown) | 3.30 to 4.52
NCCCN1CCN(C(=O)N[C@H](C(=O)N[C@H]2Cc3cccc(C(=O)O)c3OB2O)c2cccc(NS(N)(=O)=O)c2)C(=O)C1=O | 3.30 to 4.52
CCN1CCN(C(=O)N[C@H](C(=O)N[C@H]2Cc3cccc(C(=O)O)c3OB2O)c2cc(Cl)c(O)cc2Cl)C(=O)C1=O (single isomer, unassigned) | < 3.30
CCN1CCN(C(=O)NC(C(=O)N[C@H]2Cc3cccc(C(=O)O)c3OB2O)c2ccc(O)c(NC(=O)c3ccc(O)c(O)c3Cl)c2)C(=O)C1=O (stereo partly shown) | > 4.52
CC(C)(C)[C@@H](NC(=O)c1c(F)cc(O)c(O)c1Cl)C(=O)N[C@H]1Cc2ccc(F)c(C(=O)O)c2OB1O | 3.30 to 4.52
NC(C(=O)N[C@H]1Cc2ccc(F)c(C(=O)O)c2OB1O)c1c(F)cc(O)c(O)c1Cl (stereo partly shown) | 3.30 to 4.52
CS(=O)(=O)N1CCN(C(=O)NC(C(=O)N[C@H]2Cc3ccc(F)c(C(=O)O)c3OB2O)c2c(Cl)cc(O)c(O)c2F)C1=O (stereo partly shown) | > 4.52
